system: breast - MCF-7; assay: Antiproliferative assay (MTT) MCF-7; conditions: MCF-7, 100 µM
Below is a list of entries, each paired with its recorded Average of Relative viability of cells (%) value.
Value kind: Average of Relative viability of cells (%)

| Compound | System | Unit descriptor | Assay value |
| --- | --- | --- | --- |
| Cc1nc(SCC(=O)Nc2nccs2)sc1C(=O)/C=C/c1ccc(Cl)cc1 [Compound 13b] | breast - MCF-7 | % | 8.2 |
| Cc1nc(SCC(=O)Nc2nc(-c3ccc(Cl)cc3)cs2)sc1C(=O)/C=C/c1ccccc1 [Compound 10f] | breast - MCF-7 | % | 19.2 |
| Cc1nc(SCC(=O)Nc2nc(-c3ccc(Cl)cc3)cs2)sc1C(=O)/C=C/c1ccc(F)cc1 [Compound 10h] | breast - MCF-7 | % | 23.6 |
| Cc1ccc(/C=C/C(=O)c2sc(SCC(=O)Nc3nccs3)nc2C)cc1 [Compound 13d] | breast - MCF-7 | % | 8.3 |

* * *

Below is a list of entries, each paired with its recorded Average of Relative viability of cells (%) value.
system: breast - MCF-7; assay: Antiproliferative assay (MTT) MCF-7; settings: MCF-7, 25 µM
Value kind: Average of Relative viability of cells (%)

| Compound | Assay value |
| --- | --- |
| COc1ccc(/C=C/C(=O)c2sc(SCC(=O)Nc3nc(-c4ccc(C)cc4)cs3)nc2C)cc1 [Compound 10o] | 20.3 |
| Cc1nc(SCC(=O)Nc2nccs2)sc1C(=O)/C=C/c1ccc(F)cc1 [Compound 13c] | 51.6 |
| Cc1nc(SCC(=O)Nc2nc(-c3ccc(Cl)cc3)cs2)sc1C(=O)/C=C/c1ccccc1 [Compound 10f] | 33.5 |
| Cc1ccc(/C=C/C(=O)c2sc(SCC(=O)Nc3nccs3)nc2C)cc1 [Compound 13d] | 24.5 |
| Cc1nc(SCC(=O)Nc2nccs2)sc1C(=O)/C=C/c1ccc(Cl)cc1 [Compound 13b] | 22.6 |
| Cc1ccc(-c2csc(NC(=O)CSc3nc(C)c(C(=O)/C=C/c4ccc(F)cc4)s3)n2)cc1 [Compound 10m] | 37.2 |
| Cc1nc(SCC(=O)Nc2nc(-c3ccc(Cl)cc3)cs2)sc1C(=O)/C=C/c1ccc(F)cc1 [Compound 10h] | 50.2 |
| Cc1ccc(/C=C/C(=O)c2sc(SCC(=O)Nc3nc(-c4ccccc4)cs3)nc2C)cc1 [Compound 10d] | 22.6 |

* * *

assay: Cell viability assay (MTT), normal cells; format: cell-based; details: human, MCF-10A normal mammary gland epithelial cells, four-day incubation
Value kind: viability at 96 h, 50 µM (%)

| Molecule | Unit descriptor | Assay value |
| --- | --- | --- |
| Cc1ccc(-c2csc(NC(=O)CSc3nc(C)c(C(=O)/C=C/c4ccccc4)s3)n2)cc1 [Compound 10k] | % | 90 |
| COc1ccc(/C=C/C(=O)c2sc(SCC(=O)Nc3nc(-c4ccccc4)cs3)nc2C)cc1 [Compound 10e] | % | 92 |
| Cc1ccc(/C=C/C(=O)c2sc(SCC(=O)Nc3nc(-c4ccccc4)cs3)nc2C)cc1 [Compound 10d] | % | 90 |
| Cc1ccc(-c2csc(NC(=O)CSc3nc(C)c(C(=O)/C=C/c4ccc(Cl)cc4)s3)n2)cc1 [Compound 10l] | % | 89 |
